FYI, the data here is from PubChem BioAssay (NCATS).

Test protocol: qHTS assay for small molecule antagonists of retinoid X receptor alpha signaling (AID 588546);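 also: cells stimulated with 9-cis-retinoic acid as agonist; % is scaled to controls: 0 for no effect and ±100 for the full control effect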
Condition details: HEK293T RXRa-UAS-bla, beta-lactamase ratio, antagonist mode; measured here: W530 green channel, cytotoxicity proxy
Inconclusive results are not listed.
Measure: max response

Solved cases below.
Reported max response ( "OC(c1ccc(Cl)cc1)(c1ccc(Cl)cc1)C(Cl)(Cl)Cl" ) = -2.98%

Reported max response ( "COc1cc(OC)nc(NC(=O)NS(=O)(=O)c2ncccc2C(F)(F)F)n1" ) = -9.13%

Reported max response ( "CN/C(=N\[N+](=O)[O-])NCc1cnc(Cl)s1" ) = -9.8%

Return reported max response values for all items listed beneath this line.
1. CNC(=O)N(C)c1nc2ccccc2s1
2. O=C1C=CC(=O)c2ccccc21
3. O=[N+]([O-])Nc1nccn1Cc1ccc(Cl)nc1

Result:
1. 0.29%
2. -1.96%
3. -3.06%

----------
Target: ATP-dependent 6-phosphofructokinase (Trypanosoma brucei brucei)
Test protocol: qHTS Assay to Find Inhibitors of T. brucei phosphofructokinase: hit validation (AID 492961);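 also: luminescence reports ADP formed as PFK phosphorylates fructose-6-phosphate with ATP; % is scaled to controls: 0 for no effect and ±100 for the full control effect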
Condition details: T. brucei PFK, ADP-Glo luminescence; series mostly up to 51.4 µM
Inconclusive results are not listed. Active and inactive are the calls of the source. Calls follow the shape of the dose curve; as a rule, active = well fitted inhibition curve with a large enough effect; inconclusive = small, poorly fitted or top-dose-only effect, or effect the other way; inactive = flat fitted curve, though single readings scatter. Bridge positions count the residues as written; N and C are the ends. Square brackets hold non-standard residues; d marks the D form. Peptide text beside a SMILES is read from it. * marks the point of attachment. Ileψ(thiazoline)Cys = CC[C@H](C)[C@H](N)C1=N[C@H](C(=O)*)CS1; d(aIle) = CC[C@H](C)[C@@H](N)C(=O)O; dOrn = NCCC[C@@H](N)C(=O)O
Measure: outcome

Reported outcome ( C[C@]12C=CC(=O)C=C1CC[C@@H]1C2CC[C@]2(C)OC(=O)CCC12 (some centres not stated) ) = inactive

Reported outcome ( CC[C@H](C)[C@H](N)C1=N[C@H](C(=O)N[C@@H](CC(C)C)C(=O)N[C@@H](CCC(=O)O)C(=O)N[C@@H](C(=O)N[C@H]2CCCCNC(=O)[C@@H](CC(N)=O)NC(=O)[C@@H](CC(=O)O)NC(=O)[C@@H](Cc3cnc[nH]3)NC(=O)[C@@H](Cc3ccccc3)NC(=O)[C@@H]([C@@H](C)CC)NC(=O)[C@@H](CCCN)NC2=O)[C@@H](C)CC)CS1 ({Ileψ(thiazoline)Cys}-LE[d(aIle)]K[dOrn][d(aIle)][dF][dH][dD][dN]; lactam 4-C) ) = inactive

----------
Provide the recorded caspase-3 activation for the entries that follow.
Test protocol: Cellular Toxicity (caspase-3) Hek293 (AID 664);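 also: cells exposed to compound for 16 h at 37 °C before readout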
Condition details: HEK293 caspase-3 activation, DMSO = 0%, 100 µM tamoxifen = 100%; at 92.2 µM (top of the series)
Results filed as inconclusive are left out.
Numbers only, in %.

Solved cases below.
Reported caspase-3 activation ( "[Cd+2].[Cl-].[Cl-]" ) = 1.43

Reported caspase-3 activation ( "[CH3][Hg][Cl]" ) = -9.46

Reported caspase-3 activation ( "COP(=O)(OC)O/C(=C\Cl)c1cc(Cl)c(Cl)cc1Cl" ) = -4.53

Switching to the query record.
Reported caspase-3 activation ( ClC1=C(Cl)C2(Cl)C3C(Cl)C(Cl)CC3C1(Cl)C2(Cl)Cl (centres undefined) ) = 204

----------
Target: Nuclear receptor subfamily 1 group I member 2 (Rattus norvegicus) (UniProt Q9R1A7)
Sequence (Q9R1A7 whole entry, looked up): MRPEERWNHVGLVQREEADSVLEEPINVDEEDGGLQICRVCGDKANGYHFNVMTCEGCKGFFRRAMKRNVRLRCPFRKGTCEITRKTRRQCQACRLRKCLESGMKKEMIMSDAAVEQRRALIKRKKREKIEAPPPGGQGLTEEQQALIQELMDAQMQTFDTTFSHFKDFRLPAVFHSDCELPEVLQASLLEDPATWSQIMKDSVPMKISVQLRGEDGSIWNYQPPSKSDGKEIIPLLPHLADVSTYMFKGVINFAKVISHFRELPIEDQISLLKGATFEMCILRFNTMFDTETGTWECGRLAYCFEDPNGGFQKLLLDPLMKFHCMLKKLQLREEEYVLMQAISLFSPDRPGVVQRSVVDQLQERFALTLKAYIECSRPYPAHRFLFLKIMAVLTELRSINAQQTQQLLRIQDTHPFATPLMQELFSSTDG
Test protocol: qHTS assay for small molecule activators of the rat pregnane X receptor (rPXR) signaling pathway (AID 651751); also: 0% is about no effect
Condition details: rPXR reporter cells, luciferase (One-Glo), 24 h
Measure: max response (%)
Answers are plain numbers, in %.

Solved cases below.
// assay Nuclear receptor subfamily 1 group I member 2 (Rattus norvegicus) (UniProt Q9R1A7), entry "COc1nc(C)nc(NC(=O)NS(=O)(=O)c2ccccc2Cl)n1" , max response value = -1.17

// assay Nuclear receptor subfamily 1 group I member 2 (Rattus norvegicus) (UniProt Q9R1A7), entry "CS(=O)(=O)NC(=O)c1cc(Oc2ccc(C(F)(F)F)cc2Cl)ccc1[N+](=O)[O-]" , max response value = -4.18

// assay Nuclear receptor subfamily 1 group I member 2 (Rattus norvegicus) (UniProt Q9R1A7), entry CCC(C)c1ccc(O)cc1 (stereo unspecified) , max response value = -4.44

// assay Nuclear receptor subfamily 1 group I member 2 (Rattus norvegicus) (UniProt Q9R1A7), entry "CCCCN(CC)C(=O)SCCC" , max response value = 4.32

// assay Nuclear receptor subfamily 1 group I member 2 (Rattus norvegicus) (UniProt Q9R1A7), entry CCOP(=O)(OCC)OC(Cl)C(Cl)(Cl)Cl (stereo unspecified) , max response value = 2.92

Return reported max response values for all items listed beneath this line.
1. N#Cc1cc(Br)c(O)c(Br)c1
2. CC(C)C1(C)N=C(c2ncccc2C(=O)O)NC1=O (stereo unspecified)
3. O=C(NC(=O)c1c(F)cccc1F)Nc1cc(Cl)c(OC(F)(F)C(F)F)c(Cl)c1
4. NS(=O)(=O)C(F)(F)C(F)(F)C(F)(F)C(F)(F)C(F)(F)C(F)(F)C(F)(F)C(F)(F)F
5. CCOP(=O)(OCC)SCSCC

Result:
1: -9.3; 2: -3.34; 3: -0.359; 4: -9.61; 5: -5.9

----------
Test protocol: qHTS assay for small molecule agonists of the antioxidant response element (ARE) signaling pathway (AID 651741); also: potency is read from the fitted curve at half-maximal effect; as to activation: % of control where 0% means no effect
Condition details: HepG2 ARE-bla reporter, beta-lactamase FRET ratio, 16 h; series mostly up to 96 µM
Results filed as inconclusive are left out. Calls of active or inactive are those of the source. Calls come from the whole dose curve; as a rule, active = well fitted activation curve with a large enough effect in the signal ratio; inconclusive = small, poorly fitted or top-dose-only effect, or effect the other way, or a change in a side signal; inactive = flat fitted curve, though single readings scatter; the % refers to the signal ratio.
Measure: Potency

Solved cases below.
Reported Potency ( "COc1ccc(/C(=C/C(=O)N2CCOCC2)c2ccc(Cl)cc2)cc1OC" ) = inactive

Reported Potency ( "O=C(CCl)c1ccccc1" ) = 61.1 µM (active)

Reported Potency ( CCOP(N)(=O)Oc1ccc(SC)c(C)c1 (stereo not given) ) = inactive

Reported Potency ( "[O-][N+](=Nc1ccccc1)c1ccccc1" ) = 37.6 µM (active)

Return reported Potency values for all items listed beneath this line.
1. O=C(O)c1c(Cl)ccc2cc(Cl)cnc12
2. CCC[CH2][Sn]1([CH2]CCC)[O]C(=O)C=CC(=O)[O]1
3. COP(=S)(OC)Oc1nc(Cl)c(Cl)cc1Cl
4. ClC1=C(Cl)[C@@]2(Cl)[C@H]3C[C@@H](Cl)[C@H](Cl)[C@H]3[C@@]1(Cl)C2(Cl)Cl
5. Cc1nn(C)c(Oc2ccccc2)c1/C=N/OCc1ccc(C(=O)OC(C)(C)C)cc1
6. Cc1cc(Cl)ccc1N=CN(C)C
7. CCCCN(CC)c1c([N+](=O)[O-])cc(C(F)(F)F)cc1[N+](=O)[O-]

Result:
inactive
2.17 µM (active)
27.3 µM (active)
24.3 µM (active)
0.154 µM (active)
inactive
inactive

----------
Test protocol: Cell Viability - LYMP2-022 (AID 987);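 also: cells exposed to compound for 24 hr; nearly all actives have a fitted effect of over 55% in size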
Condition details: LYMP2-022 lymphoblastoid cell viability; series mostly up to 92.2 µM
Results filed as inconclusive are left out. Active and inactive are the calls of the source. Calls follow the shape of the dose curve; as a rule, active = well fitted cell-killing curve with a large enough effect; inconclusive = small, poorly fitted or top-dose-only effect; inactive = flat fitted curve, though single readings scatter.
Respond with a class label; see yes = active, no = inactive

Use these answered entries as a reference point.
Request: Record request — test call for "c1ccc2cc3c(cc2c1)-c1cccc2cccc-3c12"
Result: no

Request: Record request — test call for "C#CCO"
Result: no

Request: Record request — test call for "ClC1=C(Cl)C(Cl)(Cl)C(Cl)=C1Cl"
Result: yes

Others:
Request: Record request — test call for "O=[N+]([O-])c1cc(C(F)(F)F)cc([N+](=O)[O-])c1Cl"
Result: yes

Request: Record request — test call for "CCCCCCCCn1sccc1=O"
Result: yes

Request: Record request — test call for "[Cd+2].[Cl-].[Cl-]"
Result: yes

Request: Record request — test call for "[CH3][Hg][Cl]"
Result: yes

Request: Record request — test call for "CN(C)c1ccc(N=O)cc1"
Result: yes

Request: Record request — test call for "O=[N+]([O-])C(Br)Br"
Result: yes

Request: Record request — test call for "Clc1ccc(C(c2ccc(Cl)cc2)C(Cl)Cl)cc1"
Result: no

Request: Record request — test call for "C[C@@H]1CC[C@@]2(OC1)O[C@H]1[C@@H](O)[C@H]3[C@@H]4CC[C@H]5C[C@@H](O[C@@H]6O[C@H](CO)[C@H](O[C@@H]7O[C@H](CO)[C@@H](O)[C@H](O[C@@H]8OC[C@@H](O)[C@H](O)[C@H]8O)[C@H]7O[C@@H]7O[C@H](CO)[C@@H](O)[C@H](O[C@@H]8O[C@H](CO)[C@@H](O)[C@H](O)[C@H]8O)[C@H]7O)[C@H](O)[C@H]6O)[C@H](O)C[C@]5(C)[C@H]4CC[C@]3(C)[C@H]1[C@@H]2C"
Result: yes

Request: Record request — test call for "OC(c1ccc(Cl)cc1)(c1ccc(Cl)cc1)C(Cl)(Cl)Cl"
Result: no

Request: Record request — test call for "Nc1ccccc1C(=O)OCCc1ccccc1"
Result: no

Request: Record request — test call for "FC(F)(F)c1ccc(Cl)cc1"
Result: no
